Hello, the source for this data is the RNAGym collection of RNA variant scans (doi:10.7554/elife.80360), in case you need it.

B1: HDV Ribozyme (parent)
chain: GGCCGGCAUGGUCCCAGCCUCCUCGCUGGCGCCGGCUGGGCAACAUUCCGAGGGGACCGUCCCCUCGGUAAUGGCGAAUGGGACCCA

# Variants of: B1
# procedureDetails: self-cleavage, relative activity (ratio to wild type); higher = more cleavage; co-transcriptional

variantKey | self-cleavage
C3G G17C | 0.0941
C3U G29C | 0.0601
C36U G74A | 0.205
G28A G81A | 0.101
C4A G38U | 0.0449
C19A A83U | 0.138
C4U C66G | 0.875
G29A C33G | 0.0346
C62U U72C | 0.636
C32A C49U | 0.0997
C15G C21A | 0.0707
U27G A87C | 0.869
G53U G76U | 0.939
C63G G73U | 0.397
C33U A87G | 0.79
G76A G81C | 0.302
A71U C75G | 0.0852
C63A A78C | 0.108
U23A C57G | 1.06
G28C G80U | 0.123
G35U A43C | 0.208
C26G A42C | 0.158
G34A C44U | 0.0863
C86A | 0.926
U12A C58G | 0.383
U12G U79A | 0.939
A56G G76U | 1.22
A8U G74U | 0.173
G28A G31A | 0.101
A16G C21U | 0.0615
C58G C62A | 0.796
C30U A56C | 0.772
C22A G25C | 0
U69G A70C | 1.15
A8U C66A | 1.06
U60A U69C | 1.08
A43G C44U | 0.884
C84G C86G | 0.522
C26G A45G | 1.04
A8U A83C | 0
C30G C44A | 0.0875
C26G G54A | 0.655
G17A A78G | 0.262
C21A U72G | 0.166
U60G G74A | 0.227
C22G C44A | 0.0426
G1U G34A | 0.298
A51C G59A | 0.92
C32G U72A | 0.0489
G35C U60A | 0.192
U9A G54A | 0.943
G1C G55C | 0.214
U46G C63U | 0.813
G52U G53A | 0.849
A8G C49A | 0.939
G17C C49G | 0.107
G17U C30G | 0.486
G1C G25C | 0
A45C C66G | 0.587
G38U G50A | 0.218
C4A G11C | 0.0604
U37C G80C | 0.288
G2C C15A | 0.0297
G28A A43G | 0.0739
C14U C18A | 0
C7A U23G | 0.19
G11C G28U | 0.0268
C3G A78C | 0.134
C18G C44G | 0.0723
C32A A45C | 0.0875
G5C G35A | 0.113
G53C C84A | 0.76
U20A U65G | 0.101
U37G G59U | 0.256
U20A G74C | 0.0396
A16G A45C | 0.506
A42C U79A | 0.213
G25A C41U | 0.155
G81A A83C | 0.165
U9A C19U | 0.113
